- METHOD NOTES: Pharmacokinetics of 30.1 after intravenous dosing (Example N)
- Type: in vivo, rat
- MEASUREMENT CONTEXT: rat, plasma, iv; 20 mg/kg i.v.
MEASURED PROPERTY: clearance (mL/min/kg)
Record the value in mL/min/kg, omitting the unit from your answer.

-- ask Could you tell me which clearance is on file for Nc1ncnc2c1ncn2[C@@H]1O[C@H](COP2(=O)OCCC(c3ccncc3)O2)[C@@H](O)[C@@H]1O (stereo partly shown) ?
-- reply 55.7

* * *

- METHOD NOTES: Pharmacokinetics of 30.1 after intravenous dosing (Example N)
- Type: in vivo, rat
- MEASUREMENT CONTEXT: rat, plasma, iv, 20 mg/kg, 20 mg/kg i.v.; read-out: plasma half life (converted)
MEASURED PROPERTY: half-life (min)
Record the value in min, omitting the unit from your answer.

-- ask Could you tell me which half-life is on file for Nc1ncnc2c1ncn2[C@@H]1O[C@H](COP2(=O)OCCC(c3ccncc3)O2)[C@@H](O)[C@@H]1O (stereo partly shown) [Compound 30.1] ?
-- reply 11.4

* * *

- METHOD NOTES: Pharmacokinetics of 30.1 after intravenous dosing (Example N)
- Assay type: in vivo, rat
- MEASUREMENT CONTEXT: rat, urine, iv, 24 hr urine; read-out: urinary (renal) excretion (24hr)
MEASURED PROPERTY: dose excreted at 24 h

-- ask Could you tell me which dose excreted at 24 h is on file for Nc1ncnc2c1ncn2[C@@H]1O[C@H](COP2(=O)OCCC(c3ccncc3)O2)[C@@H](O)[C@@H]1O (stereo partly shown) ?
-- reply ~58%

* * *

- METHOD NOTES: Pharmacokinetics of 30.1 after intravenous dosing (Example N)
- Assay type: in vivo, rat
- MEASUREMENT CONTEXT: rat, plasma, iv; 20 mg/kg i.v.; read-out: mean residence time
MEASURED PROPERTY: MRT (min)
Record the value in min, omitting the unit from your answer.

-- ask Could you tell me which MRT is on file for Nc1ncnc2c1ncn2[C@@H]1O[C@H](COP2(=O)OCCC(c3ccncc3)O2)[C@@H](O)[C@@H]1O (stereo partly shown) [Compound 30.1] ?
-- reply 12.6

* * *

- METHOD NOTES: Pharmacokinetics of 30.1 after intravenous dosing (Example N)
- Format: in vivo, rat
- MEASUREMENT CONTEXT: rat, plasma, iv, 20 mg/kg, 30.1 in rat, restated in Example S; read-out: plasma half-life
- Description: The pharmacokinetics of 30.1 were evaluated in the rat. Methods: 30.1 was administered at 20 mg/kg to fasted rats via the tail vein under light halothane anesthesia. […] Blood samples were briefly centrifuged and the plasma fraction was then extracted with 1.5 volumes of methanol, processed, and analyzed by HPLC as described in Example A. Liver samples were excised, frozed in liquid nitrogen, and then homogenized in 100% methanol. […]
MEASURED PROPERTY: half-life (min)
Record the value in min, omitting the unit from your answer.

-- ask Could you tell me which half-life is on file for Nc1ncnc2c1ncn2[C@@H]1O[C@H](COP2(=O)OCCC(c3ccncc3)O2)[C@@H](O)[C@@H]1O (stereo partly shown) [Compound 30.1] ?
-- reply 12
